study_system: T1, hPRLR.mFc (soluble dimeric human PRLR) (Homo sapiens, UniProt P16471)
T1 construct: dimeric (hPRLR.mFc)
T1 sequence (P16471 with tags, fused parts or gaps): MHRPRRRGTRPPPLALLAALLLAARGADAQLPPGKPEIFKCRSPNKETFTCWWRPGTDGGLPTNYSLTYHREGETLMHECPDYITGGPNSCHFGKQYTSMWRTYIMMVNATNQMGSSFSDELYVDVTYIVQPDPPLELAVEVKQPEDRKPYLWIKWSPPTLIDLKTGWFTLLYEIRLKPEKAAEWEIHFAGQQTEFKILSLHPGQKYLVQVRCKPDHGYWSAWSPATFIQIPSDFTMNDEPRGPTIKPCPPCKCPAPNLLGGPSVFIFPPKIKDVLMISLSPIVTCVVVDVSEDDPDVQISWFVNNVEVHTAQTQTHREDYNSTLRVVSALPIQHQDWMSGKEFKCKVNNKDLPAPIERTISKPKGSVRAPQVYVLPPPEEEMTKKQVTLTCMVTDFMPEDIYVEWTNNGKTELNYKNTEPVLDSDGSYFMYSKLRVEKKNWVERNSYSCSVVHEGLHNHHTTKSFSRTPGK
experimental_details: Surface plasmon resonance (Biacore T200), mAb-capture format
Type: binding
experimental_parameters: 25° C., antibody-capture format, analyte hPRLR.mFc
reported_metric: T½ (h)
Write the number in h without appending the unit.

Reference set (5 entries):
Input line: Suppose we examine the molecule H1H6960N: human IgG1 Fc form of H2M6960N; anti-PRLR; HCVR/LCVR SEQ ID NOs 322/330 (antibody, V domains shown, human IgG1 Fc) VH: EVQLVESGGGLVKPGGSLRLSCAASGITFSSYSMNWVRQAPGKGLEWVSSISTRSSLIHYADSVKGRFTISRDNAKNSLYLQMNSLRDEDTAVYYCARWDAAAAFDYWGQGTLVIVSS VL: DIQLTQSPSFLSASVGDRVTITCWASQGISSYLAWYQQKPGKAPKLLIYVASTLQSGVPSRFSGSGSGTEFTLTISSLQPEDFATYFCQQLNSYPLTFGGGTKVEIK ; what T½ value has been reported?
Output line: 5.407

Input line: I am curious: what T½ value has been reported for H1H6762P: anti-PRLR antibody, human IgG1 Fc; HCVR/LCVR SEQ ID NOs 2/10 (antibody, V domains shown, human IgG1 Fc) VH: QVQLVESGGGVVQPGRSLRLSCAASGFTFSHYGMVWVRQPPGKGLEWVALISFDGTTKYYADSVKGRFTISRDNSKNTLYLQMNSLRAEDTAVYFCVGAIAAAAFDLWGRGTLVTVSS VL: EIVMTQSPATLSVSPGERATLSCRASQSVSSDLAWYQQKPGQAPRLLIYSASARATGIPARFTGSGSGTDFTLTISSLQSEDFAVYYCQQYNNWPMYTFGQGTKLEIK ?
Output line: 2.98

Input line: Which T½ is listed for H1H6800P: anti-PRLR antibody, human IgG1 Fc; HCVR/LCVR SEQ ID NOs 194/202 (antibody, V domains shown, human IgG1 Fc) VH: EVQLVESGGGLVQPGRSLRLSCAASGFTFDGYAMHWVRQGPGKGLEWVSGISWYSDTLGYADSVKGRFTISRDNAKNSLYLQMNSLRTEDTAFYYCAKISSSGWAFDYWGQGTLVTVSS VL: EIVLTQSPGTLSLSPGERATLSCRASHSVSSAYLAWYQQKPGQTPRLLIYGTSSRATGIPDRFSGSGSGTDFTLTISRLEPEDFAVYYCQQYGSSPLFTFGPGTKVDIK ?
Output line: 2.22

Input line: # query: T½ of entry H1H6804P: anti-PRLR antibody, human IgG1 Fc; HCVR/LCVR SEQ ID NOs 242/250 (antibody, V domains shown, human IgG1 Fc) VH: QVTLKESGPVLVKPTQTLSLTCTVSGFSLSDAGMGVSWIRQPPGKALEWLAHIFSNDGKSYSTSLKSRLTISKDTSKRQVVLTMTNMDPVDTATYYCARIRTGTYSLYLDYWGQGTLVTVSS VL: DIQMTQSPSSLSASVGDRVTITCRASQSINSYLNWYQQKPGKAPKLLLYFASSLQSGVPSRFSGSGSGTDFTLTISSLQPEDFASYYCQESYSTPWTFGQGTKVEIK
Output line: 2.22

Input line: Look up T½: H1H6781P: anti-PRLR antibody, human IgG1 Fc; HCVR/LCVR SEQ ID NOs 50/58 (antibody, V domains shown, human IgG1 Fc) VH: EVQLVESGGDLVQPGESLRLSCTASGFTFNSYEMNWVRQAPGKGLEWVSYISSSGGTKYYVDSVKGRFTISRDNAKKSLYLQMNSLRADDTALYYCARLNGVDVFDIWGQGTMVTVSS VL: DIQMTQSPSSLSASVGDRVTITCRASQDIFNYLAWFQQKPGKVPELLISAASTLQSGVPSRFSGSGSGTYFTLTISSLQPEDIATYYCQRYNSAPLTFGGGTKVEIK
Output line: 3.18

New cases:
Input line: Look up T½: H1H6795P: anti-PRLR antibody, human IgG1 Fc; HCVR/LCVR SEQ ID NOs 162/170 (antibody, V domains shown, human IgG1 Fc) VH: QVQLVQSGAEVKKPGASVKVSCKASGYTFGTSGITWVRQAPGQGLEWMGWSSAYNGKTDYAQKFQDRVTMTTDTSTTTGYMEMRSLTSDDTAVYYCTTVVRRPFDFWGQGTLVTVSS VL: DIQMTQSPSSLSASVGDRVTITCRASQDINNFLAWFQQKPGKAPKSLIYAASSLQSGVPSKFSGGGSGTDFALTISSLQPEDFATYYCQQYSSYPITFGQGTRLEIK
Output line: 2.28

Input line: Report T½ for H1H6801P: anti-PRLR antibody, human IgG1 Fc; HCVR/LCVR SEQ ID NOs 210/218 (antibody, V domains shown, human IgG1 Fc) VH: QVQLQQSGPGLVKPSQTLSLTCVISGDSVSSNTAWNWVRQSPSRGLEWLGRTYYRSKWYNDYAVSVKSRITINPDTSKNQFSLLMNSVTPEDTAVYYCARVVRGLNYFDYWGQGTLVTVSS VL: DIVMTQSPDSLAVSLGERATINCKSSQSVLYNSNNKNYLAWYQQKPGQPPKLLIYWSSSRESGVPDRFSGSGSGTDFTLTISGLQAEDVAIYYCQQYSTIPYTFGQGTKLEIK please.
Output line: 1.77

Input line: So what's the measured T½ for this one? H1H6782P: anti-PRLR antibody, human IgG1 Fc; HCVR/LCVR SEQ ID NOs 66/74; non-blocking (antibody, V domains shown, human IgG1 Fc) VH: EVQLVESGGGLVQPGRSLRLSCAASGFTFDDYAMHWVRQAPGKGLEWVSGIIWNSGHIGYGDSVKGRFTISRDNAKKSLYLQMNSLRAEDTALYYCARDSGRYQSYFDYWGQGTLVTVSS VL: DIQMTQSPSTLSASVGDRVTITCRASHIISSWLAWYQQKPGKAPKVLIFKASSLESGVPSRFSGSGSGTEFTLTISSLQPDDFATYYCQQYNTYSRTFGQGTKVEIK
Output line: 2.7
